- Test system: nauplius larva of Artemia salina
- assay overview: Anti-arthropod activity on nauplius larva in 96-well microplate
- Assay type: in vivo
- applied conditions: observed microscopically after 2 days
measured parameter: Anti-arthropod activity (µg/mL)
The reply should contain only the number, in µg/mL.

C=C1CCC2C(C)(CC/C=C(\C)CO)C(OC(C)=O)CCC2(C)C1Cc1c(O)c(C)c(C)oc1=O (stereo not shown) [FKI-1778B]: 100

// below: Anti-arthropod activity requested for another compound
Form field: Anti-arthropod activity recorded for C=C1CCC2C(C)(CC/C=C(/C)CO)C(OC(C)=O)CCC2(C)C1Cc1c(O)c(C)c(C)oc1=O (stereo not shown) [FKI-1778D] with nauplius larva of Artemia salina (enter value) 100

====

- Tested on: human leukemia cell strain Jurkat cell
- assay overview: Cell cycle G1 phase terminating activity, DNA content by flow cytometer
- Type: cell-based
- applied conditions: Jurkat cells, 5 μg added to 200 μl medium, 24 hours; No addition 53.2
Each entry below lists one item and its recorded G1 phase value.
The reply should contain only the number, in %.

Answered examples (3):
C=C1CCC2C(C)(CC/C=C(\C)C(=O)O)C(OC(C)=O)CCC2(C)C1Cc1c(O)c(C)c(C)oc1=O (stereo not shown) [FKI-1778A]: 62.4
C=C(C)C(O)CCC1(C)C(OC(C)=O)CCC2(C)C(Cc3c(O)c(C)c(C)oc3=O)C(=C)CCC12 (stereo not shown) [FKI-1778C]: 64.2
C=C1CCC2C(C)(CC/C=C(/C)CO)C(OC(C)=O)CCC2(C)C1Cc1c(O)c(C)c(C)oc1=O (stereo not shown) [FKI-1778D]: 63.9

// below: G1 phase requested for another compound
Need G1 phase of C=C1CCC2C(C)(CC/C=C(\C)CO)C(OC(C)=O)CCC2(C)C1Cc1c(O)c(C)c(C)oc1=O (stereo not shown) [FKI-1778B] , thanks. 55.0
